Data provenance: patent US20250313546A1

- System: PolyAU double stranded RNA
- procedure summary: Fluorescence intercalator displacement (FID) assay, SYBR-safe probe
- condition: 20 μM compound, 30° C., lower % = stronger binding
Below, each of the compounds is paired with its reported % Normalised Fluorescence with polyAU RNA value.
A number alone suffices; assume %.

given_smiles=Cn1cc(NC(=O)c2cc(NC(=O)c3ccc(/C=C/c4cnc5ccccc5c4)cc3)cn2C)cc1C(=O)NCCOCCOCCO study_target="PolyAU double stranded RNA" unit_name=% reported_result=92
given_smiles=[H]/N=C(\CCNC(=O)c1cc(NC(=O)c2cc(NC(=O)c3ccc(C=Cc4ccc5nonc5c4)cc3)cn2C)cn1C)N1CCOCC1 study_target="PolyAU double stranded RNA" unit_name=% reported_result=49
given_smiles=Cn1cc(NC(=O)c2cc(NC(=O)c3ccc(/C=C/c4cnc5ccccc5c4)cc3)cn2C)cc1C(=O)NCCC(=N)N1CCCCC1 study_target="PolyAU double stranded RNA" unit_name=% reported_result=12
given_smiles=CN(C)c1ccc(/C=C/c2ccc(C(=O)Nc3cc(C(=O)Nc4c[nH]c(C(=O)NCCC(=N)N)c4)n(C)c3)cn2)cc1 study_target="PolyAU double stranded RNA" unit_name=% reported_result=20
given_smiles=COCCOCCOCCNC(=O)c1cc(NC(=O)c2cc(NC(=O)c3ccc(/C=C/c4cnc5ccccc5c4)cc3)cn2C)cn1C study_target="PolyAU double stranded RNA" unit_name=% reported_result=94
given_smiles=Cn1cc(NC(=O)c2cc(NC(=O)c3ccc(/C=C/c4cnc5ccccc5c4)cc3)cn2C)cc1C(N)=O study_target="PolyAU double stranded RNA" unit_name=% reported_result=65
given_smiles=CCNC(=N)CCNC(=O)c1cc(NC(=O)c2cc(NC(=O)c3ccc(/C=C/c4ccc(OC)cc4)nc3)cn2C)cn1C study_target="PolyAU double stranded RNA" unit_name=% reported_result=4
given_smiles=[H]/N=C(\CCNC(=O)c1cc(NC(=O)c2cc(NC(=O)c3ccc(C=Cc4ccc5nonc5c4)cc3)cn2C)cn1C)N1CCCCC1 study_target="PolyAU double stranded RNA" unit_name=% reported_result=3
given_smiles=N=C(N)CCNC(=O)c1cc(NC(=O)c2cc(NC(=O)c3ccc(/C=C/c4ccc5nonc5c4)cc3)c[nH]2)c[nH]1 study_target="PolyAU double stranded RNA" unit_name=% reported_result=10
given_smiles=CC(C)NC(=O)c1cc(NC(=O)c2cc(NC(=O)c3ccc(/C=C/c4cnc5ccccc5c4)cc3)cn2C)cn1C study_target="PolyAU double stranded RNA" unit_name=% reported_result=81

Please report the recorded % Normalised Fluorescence with polyAU RNA for CC/N=C(\N)CCNC(=O)c1cc(NC(=O)c2cc(NC(=O)c3ccc(/C=C/c4cnc5ccccc5c4)cc3)cn2C)cn1C .
6

Another compound to look at: CCCC/N=C(\CCNC(=O)c1cc(NC(=O)c2cc(NC(=O)c3ccc(/C=C/c4ccc(N(C)C)cc4)nc3)cn2C)cn1C)NCCCC
43

Another compound to look at: COc1ccc(/C=C/c2ccc(C(=O)Nc3cc(C(=O)Nc4cc(C(=O)NCCC(=N)NC(C)C)n(C)c4)n(C)c3)cn2)cc1
64

Another compound to look at: CN(C)c1ccc(/C=C/c2ccc(C(=O)Nc3cc(C(=O)Nc4c[nH]c(C(=O)NCCN5CCOCC5)c4)n(C)c3)cn2)cc1
39

Another compound to look at: CN(C)c1ccc(/C=C/c2ccc(C(=O)Nc3cc(C(=O)Nc4cc(C(=O)NCCCCN5CCCC5)n(C)c4)n(C)c3)cn2)cc1
8

Another compound to look at: CN(C)c1ccc(/C=C/c2ccc(C(=O)Nc3cc(C(=O)Nc4cc(C(=O)NCCCCN5CCCCC5)n(C)c4)n(C)c3)cn2)cc1
12

Another compound to look at: Cn1cc(NC(=O)c2cc(NC(=O)c3ccc(/C=C/c4cnc5ccccc5c4)cc3)c[nH]2)cc1C(=O)NCCN1CCOCC1
26

Another compound to look at: CC(C)/N=C(\N)CCNC(=O)c1cc(NC(=O)c2cc(NC(=O)c3ccc(/C=C/c4ccc5nonc5c4)cc3)cn2C)cn1C
3

Another compound to look at: COc1cccc(/C=C/c2ccc(C(=O)Nc3cc(C(=O)Nc4cc(C(=O)NCCC(=N)NC(C)C)n(C)c4)n(C)c3)cc2)c1
8

Another compound to look at: CCCC/N=C(\CCNC(=O)c1cc(NC(=O)c2cc(NC(=O)c3ccc(/C=C/c4cnc5ccccc5c4)cc3)cn2C)cn1C)NCCCC
4

Another compound to look at: CN1CCN(CCNC(=N)CCNC(=O)c2cc(NC(=O)c3cc(NC(=O)c4ccc(/C=C/c5cnc6ccccc6c5)cc4)cn3C)cn2C)CC1
6

Another compound to look at: C/N=C(/CCNC(=O)c1cc(NC(=O)c2cc(NC(=O)c3ccc(/C=C/c4cnc5ccccc5c4)cc3)cn2C)cn1C)NC
17

Another compound to look at: C/N=C(/CCNC(=O)c1cc(NC(=O)c2cc(NC(=O)c3ccc(/C=C/c4ccc(C(F)(F)F)cc4)cc3)cn2C)cn1C)NC
12

Another compound to look at: [H]/N=C(\CCNC(=O)c1cc(NC(=O)c2cc(NC(=O)c3ccc(C=Cc4ccc(N(C)C)cc4)nc3)cn2C)cn1C)NCC
5

Another compound to look at: [H]/N=C(\CCNC(=O)c1cc(NC(=O)c2cc(NC(=O)c3ccc(C=Cc4ccc(N(C)C)cc4)nc3)cn2C)cn1C)NC
19

Another compound to look at: CCNC(=N)CCNC(=O)c1cc(NC(=O)c2cc(NC(=O)c3ccc(/C=C/c4ccc(OC)cc4)cc3)cn2C)cn1C
6

Another compound to look at: Cn1cc(NC(=O)c2cc(NC(=O)c3ccc(/C=C/c4cnc5ccccc5c4)cc3)cn2C)cc1C(=O)NCCC(=N)NCCC1CCOCC1
19

Another compound to look at: CCCCCCCCCNC(=N)CCNC(=O)c1cc(NC(=O)c2cc(NC(=O)c3ccc(/C=C/c4cnc5ccccc5c4)cc3)cn2C)cn1C
4
